System: human gastric cancer cell line SGC7901
PROCEDURE_SUMMARY: WST-8 (CCK-8) in vitro cytotoxicity test, SGC7901
Type: cell-based
ASSAY_SETUP: 72 h exposure, CCK-8, mean ± SD, n = 3; read-out: IC50, SGC7901
REPORTED_METRIC: pIC50
Keep it numeric: pIC50 is minus log10 of the concentration in mol/L.

Lab note: record pIC50 of N.N.[Cl][Pt][Cl] [cisplatin, reference compound] tested on human gastric cancer cell line SGC7901.
5.59

###

System: taxol-resistant human colon cancer cell line HCT-8/T
PROCEDURE_SUMMARY: WST-8 (CCK-8) in vitro cytotoxicity test, HCT-8/T
Assay type: cell-based
ASSAY_SETUP: taxol-resistant; 72 h exposure, CCK-8, mean ± SD, n = 3; read-out: IC50, HCT-8/T
REPORTED_METRIC: IC50

State IC50 (taxol-resistant human colon cancer cell line HCT-8/T) of N.N.[Cl][Pt][Cl] [cisplatin, reference compound] .
> 20 µM
